The binders listed here are annotated with their T½.
Molecular target: T1, Dimeric human CD48-mFc (human)
T1 chain: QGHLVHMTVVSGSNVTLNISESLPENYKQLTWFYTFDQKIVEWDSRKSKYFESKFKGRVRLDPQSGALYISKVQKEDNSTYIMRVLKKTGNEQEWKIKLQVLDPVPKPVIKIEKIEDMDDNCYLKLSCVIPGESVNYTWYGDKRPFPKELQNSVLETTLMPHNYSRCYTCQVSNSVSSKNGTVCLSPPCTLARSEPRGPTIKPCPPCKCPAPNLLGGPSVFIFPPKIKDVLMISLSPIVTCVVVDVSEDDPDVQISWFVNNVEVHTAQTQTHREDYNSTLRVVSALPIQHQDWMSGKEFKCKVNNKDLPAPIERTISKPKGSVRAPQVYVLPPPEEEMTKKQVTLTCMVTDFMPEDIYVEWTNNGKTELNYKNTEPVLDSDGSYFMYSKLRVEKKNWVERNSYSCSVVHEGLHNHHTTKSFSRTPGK
Test: SPR (Biacore T100), 25 C, antibody captured by anti-Fc, dimeric CD48-mFc in solution
Number only, in min; omit the unit.

Previously resolved entries follow.
[
  {
    "BINDER": "H4H1779P (antibody, human IgG4, V domains shown, Human IgG4 Fc (prefix H4H)) VH: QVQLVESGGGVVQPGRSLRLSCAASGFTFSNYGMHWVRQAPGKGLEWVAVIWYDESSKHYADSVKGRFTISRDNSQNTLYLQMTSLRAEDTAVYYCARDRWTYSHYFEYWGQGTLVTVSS VL: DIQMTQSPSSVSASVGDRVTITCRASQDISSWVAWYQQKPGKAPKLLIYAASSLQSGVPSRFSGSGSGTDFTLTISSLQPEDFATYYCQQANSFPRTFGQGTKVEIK",
    "T½ [min]": 990
  },
  {
    "BINDER": "H3M1766N (antibody, V domains shown, also called H2M1766N) VH: EVQLVESGGGLAQPGGSLRLSCAASGFTFSSYEMNWVRQAPGKGLEWVSYITTSGSTIYYADSVKGRFTMSRDNAKKSLYLEMNSLRAEDTAVYYCAREECTNGVCYKDYQYYGMDVWGQGTTVTVSS VL: DIQMTQSPSSVSASVGDRVTITCRASQNINTWLAWYQQKPGKVPKLLIYAASSLQSGVPSRFSGSGSGTDFTLTISSLQPEDFATYYCQQANSFPLTFGGGTKVEIK",
    "T½ [min]": 176
  },
  {
    "BINDER": "H4H1772P (antibody, human IgG4, V domains shown, Human IgG4 Fc (prefix H4H)) VH: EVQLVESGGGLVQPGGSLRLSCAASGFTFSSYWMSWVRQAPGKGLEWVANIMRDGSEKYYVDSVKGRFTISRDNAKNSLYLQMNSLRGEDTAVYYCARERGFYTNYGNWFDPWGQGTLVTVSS VL: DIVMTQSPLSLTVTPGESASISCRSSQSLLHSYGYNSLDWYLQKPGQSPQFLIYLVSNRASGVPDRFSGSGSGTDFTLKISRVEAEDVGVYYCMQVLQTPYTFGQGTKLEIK",
    "T½ [min]": 894
  }
]

QUERY: Fill in the blank: the reported T½ of H4H1778P (antibody, human IgG4, V domains shown, Human IgG4 Fc (prefix H4H)) VH: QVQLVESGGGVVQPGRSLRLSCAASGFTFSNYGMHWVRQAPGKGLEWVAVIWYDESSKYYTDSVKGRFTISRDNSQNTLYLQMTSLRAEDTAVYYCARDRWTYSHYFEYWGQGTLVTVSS VL: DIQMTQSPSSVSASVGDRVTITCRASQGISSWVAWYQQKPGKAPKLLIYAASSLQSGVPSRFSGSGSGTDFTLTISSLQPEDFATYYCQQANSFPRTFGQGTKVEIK is ____.
RESULT: 1290

Data origin: patent US20130230533A1
